From: PubChem BioAssay (EPA / NIEHS)

# Read-out: Ezrin (EZR), EZR (gene 7430)
# run_description: LTEA_HepaRG_EZR: Life Technologies and Expression Analysis (LTEA) Assay for Ezrin (EZR) using HepaRG (AID 2283491)
# experimental_parameters: mRNA level, 48 h; actives raise or lower the signal
# Experimental: It is a marker of Cellular remodeling.Data from the assay component LTEA_HepaRG_EZR was analyzed into 1 endpoint. This assay endpoint, LTEA_HepaRG_EZR, was analyzed with bidirectional fitting relative to DMSO as the negative control and baseline of activity. Using a type of inducible reporter, measures of mRNA induction for gain or loss-of-signal activity can be used to understand regulation of transcription factor activity. […]
Activity calls are given as the source filed them. Rule for the calls: active = hit-call score of the fitted dose curve at least 0.9, where 1 is the maximum; inactive = score below 0.9.
// one of active, inactive, no free text

State the result this test recorded for `CCCN(CCOc1c(Cl)cc(Cl)cc1Cl)C(=O)n1ccnc1` . active

State the result this test recorded for `O=C(O)CCCOc1ccc(Cl)cc1Cl` . inactive

State the result this test recorded for `CC(C)N(C(=O)COc1nnc(C(F)(F)F)s1)c1ccc(F)cc1` . inactive

State the result this test recorded for `Oc1cc(Cl)ccc1Oc1ccc(Cl)cc1Cl` . inactive

State the result this test recorded for `CNC(=O)CSP(=S)(OC)OC` . inactive

State the result this test recorded for CCOC1Oc2ccc(OS(C)(=O)=O)cc2C1(C)C (stereo not drawn) . active

State the result this test recorded for `O=[N+]([O-])c1c(Cl)c(Cl)c(Cl)c(Cl)c1Cl` . inactive

State the result this test recorded for O=C(NC(=O)c1c(F)cccc1F)Nc1ccc(OC(F)(F)C(F)OC(F)(F)F)c(Cl)c1 (stereo not drawn) . inactive

State the result this test recorded for `O=C(O)COc1ccc(Cl)cc1Cl` . inactive

State the result this test recorded for `COP(=O)(OC)OC=C(Cl)Cl` . inactive

State the result this test recorded for `CCc1ccc(C(=O)NN(C(=O)c2cc(C)cc(C)c2)C(C)(C)C)cc1` . inactive

State the result this test recorded for `OCCOc1ccccc1` . inactive

State the result this test recorded for `CNC(=O)Oc1ccccc1OC(C)C` . inactive

----------
# run_description: ATG_PXRE_CIS: Attagene CIS-FACTORIAL HepG2 Assay for human Pregnane X Receptor Element (PXRE) (AID 2282957)
# experimental_parameters: HepG2 Attagene CIS-FACTORIAL PXRE reporter, mRNA; actives raise or lower the signal
Active and inactive are the calls of the source. How the source made its calls: active means hit-call score of the fitted dose curve at least 0.9, where 1 is the maximum; inactive means score below 0.9.
endpoint_name: AC50

Read the entry CCC(C)Nc1c([N+](=O)[O-])cc(C(C)(C)C)cc1[N+](=O)[O-] (centres undefined) and write its reported AC50. 3.43 µM (active)

Read the entry `COP(=O)(OC)OC=C(Cl)Cl` and write its reported AC50. 21.8 µM (active)

Read the entry `C#CCN1C(=O)COc2cc(F)c(N3C(=O)C4=C(CCCC4)C3=O)cc21` and write its reported AC50. 23.8 µM (active)

Read the entry CC1(c2ccc(Oc3ccccc3)cc2)OC(=O)N(Nc2ccccc2)C1=O (centres undefined) and write its reported AC50. 2.24 µM (active)

----------
# Test system: Sodium/Iodide Symporter (NIS), SLC5A5 (gene 6528)
# run_description: CPHEA_Stoker_NIS_Inhibition_RAIU: CPHEA's Radioactive Iodide Uptake (RAIU) Assay for Sodium/Iodide Symporter (NIS) Inhibition, Stoker and Laws Labs (AID 2283841)
Results filed as inconclusive are left out. The source made the active and inactive calls. The calls were made as follows: active = hit-call score of the fitted dose curve at least 0.9, where 1 is the maximum; inconclusive = response in the unintended direction; inactive = score below 0.9.
// one of t = active, f = inactive, no free text

State the result this test recorded for `COc1nn(CSP(=S)(OC)OC)c(=O)s1` . f

State the result this test recorded for CC(C)(C)C(O)/C(=C\c1ccc(Cl)cc1Cl)n1cncn1 (stereo unspecified) . t

State the result this test recorded for `CCc1ccc(C(=O)NN(C(=O)c2cc(C)cc(C)c2)C(C)(C)C)cc1` . f

State the result this test recorded for `C#CCN1C(=O)COc2cc(F)c(N3C(=O)C4=C(CCCC4)C3=O)cc21` . t

State the result this test recorded for CCC(C)Nc1c([N+](=O)[O-])cc(C(C)(C)C)cc1[N+](=O)[O-] (stereo unspecified) . f

State the result this test recorded for `O=C(O)C(F)(F)C(F)(F)C(F)(F)C(F)(F)C(F)(F)C(F)(F)C(F)(F)F` . f

State the result this test recorded for `CCCN(CCOc1c(Cl)cc(Cl)cc1Cl)C(=O)n1ccnc1` . t

State the result this test recorded for CCC(C)(NC(=O)c1cc(Cl)c(C)c(Cl)c1)C(=O)CCl (stereo unspecified) . t

State the result this test recorded for `C[C@H]1[C@H](c2ccc(Cl)cc2)SC(=O)N1C(=O)NC1CCCCC1` . f

State the result this test recorded for `O=C(Nc1ccccc1)Nc1cnns1` . f

State the result this test recorded for `N#Cc1c(Cl)c(Cl)c(Cl)c(C#N)c1Cl` . f

State the result this test recorded for ClC1C(Cl)C(Cl)C(Cl)C(Cl)C1Cl (stereo unspecified) . f

State the result this test recorded for `O=C1c2ccccc2C(=O)N1SC(Cl)(Cl)Cl` . t

State the result this test recorded for `CCCN(CCC)c1c([N+](=O)[O-])cc(C(F)(F)F)cc1[N+](=O)[O-]` . f

State the result this test recorded for `CC(C)OC(=O)Nc1cccc(Cl)c1` . f

State the result this test recorded for CC[C@H](C)[C@H]1O[C@]2(C=C[C@@H]1C)C[C@@H]1C[C@@H](C/C=C(\C)[C@@H](O[C@H]3C[C@H](OC)[C@@H](O[C@H]4C[C@H](OC)[C@@H](O)[C@H](C)O4)[C@H](C)O3)[C@@H](C)/C=C/C=C3\CO[C@@H]4[C@H](O)C(C)=C[C@@H](C(=O)O1)[C@]34O)O2 (tested in a mixture with another compound) . f
